The measurements presented in this section are drawn from ChEMBL document CHEMBL1150977.

molecular target: Tyrosine-protein kinase Lyn (Homo sapiens, UniProt P07948)
Sequence (P07948 whole entry): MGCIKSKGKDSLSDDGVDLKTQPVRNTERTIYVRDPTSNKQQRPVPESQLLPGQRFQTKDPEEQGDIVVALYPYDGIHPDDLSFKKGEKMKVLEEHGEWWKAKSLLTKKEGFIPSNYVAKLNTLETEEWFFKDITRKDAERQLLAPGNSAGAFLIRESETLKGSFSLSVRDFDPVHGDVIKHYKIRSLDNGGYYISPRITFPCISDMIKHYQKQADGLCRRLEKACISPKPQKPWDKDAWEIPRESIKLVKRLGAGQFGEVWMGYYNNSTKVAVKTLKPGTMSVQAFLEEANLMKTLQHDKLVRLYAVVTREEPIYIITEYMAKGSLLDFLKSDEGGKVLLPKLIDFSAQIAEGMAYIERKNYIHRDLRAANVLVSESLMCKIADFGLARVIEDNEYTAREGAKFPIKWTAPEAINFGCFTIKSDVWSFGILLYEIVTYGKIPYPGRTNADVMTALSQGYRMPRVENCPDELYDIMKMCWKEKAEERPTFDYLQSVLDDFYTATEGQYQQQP
attribute.measured: Kd

Ask: Given Nc1nc(Nc2ccc(S(N)(=O)=O)cc2)nn1C(=O)c1c(F)cccc1F , state its recorded Kd.
Reply: > 10 µM

Ask: What do you have for Oc1ccc(-c2nc(-c3ccncc3)c(-c3ccc(F)cc3)[nH]2)cc1 ?
Reply: > 10 µM

Ask: Then what about the compound CCOc1cc2ncc(C#N)c(Nc3ccc(F)c(Cl)c3)c2cc1NC(=O)/C=C/CN(C)C ?
Reply: 0.72 µM

Ask: Field entry: COCC(=O)NC/C=C/c1ccc2ncnc(Nc3ccc(Oc4ccc(C)nc4)c(C)c3)c2c1
Reply: > 10 µM

Ask: Same read-out for NC(=O)c1ccc(-c2nc(-c3ccc4c(c3)OCO4)c(-c3ccccn3)[nH]2)cc1 ?
Reply: > 10 µM
